Molecular target: Prostaglandin G/H synthase 2 (Homo sapiens, UniProt P35354)
Sequence (P35354 whole entry): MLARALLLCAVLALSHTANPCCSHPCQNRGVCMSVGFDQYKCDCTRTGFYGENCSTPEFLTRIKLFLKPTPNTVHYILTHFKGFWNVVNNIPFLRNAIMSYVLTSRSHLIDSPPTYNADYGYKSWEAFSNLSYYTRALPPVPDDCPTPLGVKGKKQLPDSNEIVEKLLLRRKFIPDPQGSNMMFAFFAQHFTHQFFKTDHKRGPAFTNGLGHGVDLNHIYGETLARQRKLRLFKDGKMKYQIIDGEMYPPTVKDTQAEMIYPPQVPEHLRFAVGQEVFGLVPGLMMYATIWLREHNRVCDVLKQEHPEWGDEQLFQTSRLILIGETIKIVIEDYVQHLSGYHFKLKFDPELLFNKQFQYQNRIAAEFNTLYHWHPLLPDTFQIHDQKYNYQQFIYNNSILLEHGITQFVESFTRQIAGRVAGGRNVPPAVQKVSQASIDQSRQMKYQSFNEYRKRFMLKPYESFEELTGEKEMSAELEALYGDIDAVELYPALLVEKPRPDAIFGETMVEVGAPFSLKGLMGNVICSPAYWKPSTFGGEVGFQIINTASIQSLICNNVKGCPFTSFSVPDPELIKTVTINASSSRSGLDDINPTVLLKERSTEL
VALUE_TYPE: IC50 (µM)
Respond with the bare value in µM.

[[record]]
compound = "CN(C)c1ccc(C2CC(c3cc4ccccc4o3)=NN2C(N)=S)c2ccccc12 (stereo unspecified)"
tested_target = "Prostaglandin G/H synthase 2 (Homo sapiens, UniProt P35354)"
meas_value = 14.5

[[record]]
compound = "COc1cc2ccccc2c(C2CC(c3ccc4c(c3)OCCO4)=NN2C(=O)Nc2ccc(Cl)cc2)c1OC (stereo unspecified)"
tested_target = "Prostaglandin G/H synthase 2 (Homo sapiens, UniProt P35354)"
meas_value = 12.3

[[record]]
compound = "COc1ccc2c(OC)ccc(C3CC(c4cc5ccccc5o4)=NN3C(=O)Nc3ccc(Cl)cc3)c2c1 (stereo unspecified)"
tested_target = "Prostaglandin G/H synthase 2 (Homo sapiens, UniProt P35354)"
meas_value = 11.1


I would be grateful if you could share the reported IC50 for COc1cc2ccccc2c(/C=C/C(=O)c2cc3ccccc3o2)c1OC .
12.2

Looking for the measured IC50 of COc1cc2ccccc2c(C2CC(c3ccc4c(c3)OCCO4)=NN2C(N)=S)c1OC (stereo unspecified) , can you help?
17.8

// query IC50 value for entry COc1ccc2c(OC)ccc(C3CC(c4ccc5c(c4)OCCO5)=NN3C(N)=S)c2c1 (stereo unspecified)
12.6

====

Overview of recorded log10 IC50 for various compounds
Target: Prostaglandin G/H synthase 1 (Ovis aries, UniProt P05979)
Sequence (P05979 whole entry): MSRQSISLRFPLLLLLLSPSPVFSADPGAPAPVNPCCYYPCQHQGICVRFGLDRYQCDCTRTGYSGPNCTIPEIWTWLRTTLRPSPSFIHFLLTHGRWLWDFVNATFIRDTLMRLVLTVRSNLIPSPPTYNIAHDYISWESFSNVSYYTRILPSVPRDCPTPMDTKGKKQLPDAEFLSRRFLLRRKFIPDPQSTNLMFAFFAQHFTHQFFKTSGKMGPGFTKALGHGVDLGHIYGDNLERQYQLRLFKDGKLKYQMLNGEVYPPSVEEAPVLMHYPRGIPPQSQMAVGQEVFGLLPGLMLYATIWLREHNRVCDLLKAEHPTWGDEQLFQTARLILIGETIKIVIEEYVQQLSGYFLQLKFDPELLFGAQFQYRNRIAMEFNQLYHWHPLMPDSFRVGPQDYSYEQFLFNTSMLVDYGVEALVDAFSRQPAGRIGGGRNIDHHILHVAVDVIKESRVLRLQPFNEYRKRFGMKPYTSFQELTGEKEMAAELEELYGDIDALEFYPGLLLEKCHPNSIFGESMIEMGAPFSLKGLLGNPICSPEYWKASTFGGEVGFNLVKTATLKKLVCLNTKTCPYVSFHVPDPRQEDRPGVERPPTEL
Assay: Cyclooxygenase Assay
Details: pH 8; 25 °C
Each number you see is log10 of IC50, and the unit inside the log is nM.

[[record]]
compound = "CN(C)c1ccc(C2CC(c3ccc4c(c3)OCCO4)=NN2C(=O)Nc2ccc(Cl)cc2)c2ccccc12 (stereo unspecified)"
tested_target = "Prostaglandin G/H synthase 1 (Ovis aries, UniProt P05979)"
meas_value = 2.64

[[record]]
compound = "CN(C)c1ccc(C2CC(c3cc4ccccc4o3)=NN2C(=O)Nc2ccc(Cl)cc2)c2ccccc12 (stereo unspecified)"
tested_target = "Prostaglandin G/H synthase 1 (Ovis aries, UniProt P05979)"
meas_value = 3.27

[[record]]
compound = "COc1cc2ccccc2c(C2CC(c3cc4ccccc4o3)=NN2C(=O)Nc2ccc(Cl)cc2)c1OC (stereo unspecified)"
tested_target = "Prostaglandin G/H synthase 1 (Ovis aries, UniProt P05979)"
meas_value = 3.00

[[record]]
compound = "CN(C)c1ccc(C2CC(c3ccc4c(c3)OCCO4)=NN2C(N)=S)c2ccccc12 (stereo unspecified)"
tested_target = "Prostaglandin G/H synthase 1 (Ovis aries, UniProt P05979)"
meas_value = 3.05

[[record]]
compound = "COc1ccc2c(OC)ccc(/C=C/C(=O)c3cc4ccccc4o3)c2c1"
tested_target = "Prostaglandin G/H synthase 1 (Ovis aries, UniProt P05979)"
meas_value = 4.18


Which measured log10 IC50 belongs to CN(C)c1ccc(/C=C/C(=O)c2ccc3c(c2)OCCO3)c2ccccc12 , tested on Prostaglandin G/H synthase 1 (Ovis aries, UniProt P05979)?
3.85

Where do the numbers come from? From BindingDB's records for doi:10.1111/cbdd.12457.
